B1: PHD finger protein 12 (Mus musculus), Q5SPL2 (parent)
chain: MWEKMETKTIVYDLDTSGGLMEQIQALLAPPKTDEAEKRSRKPEKESRRSGRATNHDSCDSCKEGGDLLCCDHCPAAFHLQCCNPPLSEEMLPPGEWMCHRCTVRRKKREQKKELGHVNGLVDKSSKRTTSPSSDTDLLDRPASKTELKAIAHARILERRASRPGTPTSNASTETPTSEHNDVDEDIVDVDEEPVAAEPDYVQPQLRRPFELLIAAAMERNPTQFQLPNELTCTTALPGSSKRRRKEETTGKNVKRTQHELDHNGLVPLPVKVCFTCNRSCRVAPLIQCDYCPLLFHMDCLEPPLTAMPLGRWMCPNHIEHVVLNQKNLTLSNRCQVFDRFQDTISQHVVKVDFLNRIHKKHPPNRRVLQSVKRRSLKVPDAIKSQYQFPPPLIAPAAIRDGELICSGVPEESQTHLLNSEHLATQAEQQEWLCSVVALQCSILKHLSAKQMPSPWDSEQTEKADIKPVIVTDSSITTSLQTADKAPLPSHYPLSCPSAVSTQNSLGCSPPHQPPTLEDISCSSCVEKSKKAPCGTANGPVNTEIKANGPHLYSSPTDSTDPRRLPGANTPLPGLTHRQGWPRPLTPPSAGGLQNHVGIIVKTENATGPSSCPQRSLVPVPSLPPSIPSSCASIENTSTLHRKTVQSQIGPSSTESRPLGSPPNATRVLTPPQAAGDSILATGANQRFCSPAPSSDGKVSPGTLSIGSALTVPSFPANSTAMVDLTNSLRAFMDVNGEIEINMLDEKLIKFLALQRVHQLFPSRVQASPGNVGTHPLASGGHHPEVQRKEVQARAVFCPLLGLGGAVNMCYRTLYIGTGADMDVCLTNYGHCNYVSGKHACIFYDENTKHYELLNYSEHGTTVDNVLYSCDFSEKTPPTPPSSIVAKVQSVIRRRRHQKQDEEPSEEAAMMSSQAQGPQRRPCNCKASSSSLIGGSGAGWEGTALLHHGSYIKLGCLQFVFSITEFATKQPKGDASLLQDGVLAEKLSLKPHQGPVLRSNSVP

# Variants of: B1
# Experimental Conditions: with MORF4L1, Q9UBU8-2
# Sequence (Q9UBU8 other isoform, or with tags, fused parts or gaps): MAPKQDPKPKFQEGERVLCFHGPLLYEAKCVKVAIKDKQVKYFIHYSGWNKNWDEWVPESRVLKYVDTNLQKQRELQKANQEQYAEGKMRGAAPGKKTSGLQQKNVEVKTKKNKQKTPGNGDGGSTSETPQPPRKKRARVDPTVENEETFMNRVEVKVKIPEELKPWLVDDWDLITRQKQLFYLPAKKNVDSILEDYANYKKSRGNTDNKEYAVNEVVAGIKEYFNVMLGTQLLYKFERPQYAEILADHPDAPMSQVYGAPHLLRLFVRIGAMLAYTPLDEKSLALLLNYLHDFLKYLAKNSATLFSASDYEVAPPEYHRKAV
Observable: effect of a mutation on the interaction

[[record]]
mutation_id = "L227A"
result = "disrupting interaction"

[[record]]
mutation_id = "F210A"
result = "disrupting interaction"

[[record]]
mutation_id = "L213A"
result = "disrupting interaction"


Values were extracted from IntAct's records for PubMed 22244764.
